Each recorded value in this set is attributed to ChEMBL document CHEMBL4145692.

- protocol.text: Kinetic solubility in pH 7.4 HEPES-BSA buffer at 5 uM incubated for 24 hrs at 20 degC by HPLC method
- Format: physicochemical
- cond: read-out: Kinetic_solubility
Documented solubility kinetic at 24 h, 5 µM across a set of molecules

Solved entries:
Cl.NCCOCCOc1cc(/C=C2\Cc3cc(Cl)ccc3C2=O)ccc1O: > 5 µM
COc1cc(/C=C/C(=O)c2ccc(I)cc2)ccc1O: > 5 µM
COc1cc(-c2cc(-c3ccc(Cl)cc3)nc(=O)[nH]2)ccc1O: > 5 µM

Measured solubility kinetic at 24 h, 5 µM, "COc1cc(/C=C/C(=O)c2cccc(Cl)c2)ccc1O" : > 5 µM

molecule "COc1cc(/C(C)=C/C(=O)c2ccc(Cl)cc2)ccc1O" , solubility kinetic at 24 h, 5 µM observed: 2.6 µM

Value of solubility kinetic at 24 h, 5 µM reported for the molecule "COc1cc(/C=C/C(=O)c2ccc([N+](=O)[O-])cc2)ccc1O" is > 5 µM

====

Examples of molecules with documented log10(solubility thermodynamic at 24 h) follow.
- protocol.text: Thermodynamic solubility in pH 7.4 PBS buffer incubated for 24 hrs at 22 degC by HPLC method
- Assay type: physicochemical
- cond: read-out: Therm_solubility
Please note: log10 values; quantity solubility thermodynamic at 24 h; unit µM.

GET /value?item= "Cl.NCCOc1cc(/C=C/C(=O)c2ccc(Cl)cc2)ccc1O" &field=log10(solubility thermodynamic at 24 h) returns 0.62

get_value(item= "COc1cc(-c2cc(-c3ccc(Cl)cc3)nc(=O)[nH]2)ccc1O" , readout=log10(solubility thermodynamic at 24 h)) returns 1.56

"COc1cc(/C=C/C(=O)c2ccc(Cl)cc2)ccc1O" has a reported log10(solubility thermodynamic at 24 h) of 0.95

COc1cc(C2CC(c3ccc(Cl)cc3)=NN2)ccc1O (configuration not stated) yielded log10(solubility thermodynamic at 24 h) of 1.54

Input "COc1cc(/C=C2\COc3cc(Cl)ccc3C2=O)ccc1O" . Output log10(solubility thermodynamic at 24 h): -0.30

The molecule "COc1cc(/C=C/C(=O)c2ccc(I)cc2)ccc1O" showed log10(solubility thermodynamic at 24 h) equal to 0.08

Value of measured log10(solubility thermodynamic at 24 h) for the entry "COc1cc(/C=C2\Oc3cc(Cl)ccc3C2=O)ccc1O" : 0.28

====

Parameter: solubility thermodynamic at 24 h. Scope: all listed entries.
- protocol.text: Thermodynamic solubility in pH 7.4 PBS/Cdx buffer incubated for 24 hrs at 22 degC by HPLC method
- Type: physicochemical
- cond: read-out: Therm_solubility

Form: compound = "COc1cc(-c2cc(-c3ccc(Cl)cc3)nc(=O)[nH]2)ccc1O" ; solubility thermodynamic at 24 h = > 5 mM

The recorded solubility thermodynamic at 24 h for entry "Cl.NCCOc1cc(/C=C/C(=O)c2ccc(Cl)cc2)ccc1O" equals > 5 mM

Reported solubility thermodynamic at 24 h for COc1cc(C2CC(c3ccc(Cl)cc3)=NN2)ccc1O (centres undefined) was > 3 mM

Looking up "COc1cc(/C=C/C(=O)c2ccc(Cl)cc2)ccc1O" , I see its solubility thermodynamic at 24 h listed as > 0.3 mM

====

Some compounds, each annotated with its measured solubility kinetic at 24 h, 5 µM.
- protocol.text: Kinetic solubility in pH 7.4 HEPES-BSA buffer at 5 uM incubated for 24 hrs at 20 degC by HPLC method
- Format: physicochemical
- cond: read-out: Kinetic_solubility

O=C(/C=C/c1ccc(O)cc1)c1ccc(Cl)cc1: > 5 µM

// solubility kinetic at 24 h, 5 µM lookup, compound = "COc1cc(/C=C/C(=O)c2ccc(Cl)cc2F)ccc1O" , result: > 5 µM

# solubility kinetic at 24 h, 5 µM of "COc1cc(/C=C/C(=O)c2ccc(Cl)cc2)ccc1[N+](=O)[O-]" = > 5 µM

Lab note: "COc1cc(/C=C/C(=N/O)c2ccc(Cl)cc2)ccc1O" gave solubility kinetic at 24 h, 5 µM of > 5 µM

====

List of log10 Ki values.
- target.or.test.system: UniProt P48061
- Sequence (P48061 whole entry): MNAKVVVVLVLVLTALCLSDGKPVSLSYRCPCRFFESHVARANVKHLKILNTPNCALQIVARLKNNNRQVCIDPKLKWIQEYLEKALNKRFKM
- protocol.text: Binding affinity to Texas Red-labelled CXCL12 (unknown origin) assessed as inhibition of CXCL12-Texas Red binding to EGFP-labeled human CXCR4 expressed in HEK293 cell membranes pre-incubated for 1 hr by FRET-based binding assay
Please keep in mind that the values are log10 of Ki expressed in nM.

COc1cc(/C=C/C(=O)c2cc(Cl)ccc2Cl)ccc1O: 1.72

The value of log10 Ki recorded for "Cl.NCCOCCOCCOc1cc(/C=C/C(=O)c2ccc(Cl)cc2)ccc1O" when tested on UniProt P48061 reads 2.68

# lookup: "COc1cc(/C=C2\COc3cc(Cl)ccc3C2=O)ccc1O" on UniProt P48061, log10 Ki = 2.55

log10 Ki of "COc1cc(/C=C/C(=O)c2ccc(C(F)(F)F)cc2)ccc1O" , assay on UniProt P48061, is 3.03

Result for COc1cc(C2CC(c3ccc(Cl)cc3)=NN2)ccc1O (stereo unspecified) , tested on UniProt P48061, log10 Ki: 2.03

log10 Ki value, target or system UniProt P48061, for "Cl.NCCOCCOc1cc(/C=C2\Cc3cc(Cl)ccc3C2=O)ccc1O" : 2.70

The reported log10 Ki value, UniProt P48061, for "COc1cc(/C=C2\Oc3cc(Cl)ccc3C2=O)ccc1O" reads 2.31

I looked up "COc1cc(/C=C/C(=O)c2ccc(Cl)cc2Cl)ccc1O" and its log10 Ki for UniProt P48061 was 1.68

// log10 Ki (UniProt P48061) for "COc1cc(/C=C/C(=O)c2ccc(Cl)cc2F)ccc1O" = 2.03

Test item "COc1cc(/C=C/C(=O)c2ccc(I)cc2)ccc1O" ; UniProt P48061; reported log10 Ki was 2.03

====

- protocol.text: Kinetic solubility in pH 7.4 HEPES-BSA buffer at 5 uM incubated for 24 hrs at 20 degC by HPLC method
- Type: physicochemical
- cond: read-out: Kinetic_solubility
property.measured: solubility kinetic at 24 h, 5 µM

Guide cases for solubility kinetic at 24 h, 5 µM, answers given:
COc1cc(C2CC(c3ccc(Cl)cc3)=NN2C(C)=O)ccc1O (stereo not drawn): > 5 µM
COc1cc(-c2cc(-c3ccc(Cl)cc3)nc(-c3ccccc3)n2)ccc1O: 0.53 µM
COc1ccc(/C=C/C(=O)c2ccc(Cl)cc2)cc1OC: > 5 µM
O=C(/C=C/c1ccc(O)c(O)c1)c1ccc(Cl)cc1: > 5 µM
COc1cc(/C=C2\COc3cc(Cl)ccc3C2=O)ccc1O: > 5 µM
COc1cc(/C=C/C(=O)c2ccc(S(=O)(=O)O)cc2)ccc1O: > 5 µM
COc1cc(/C=C/C(=O)c2ccc3ccccc3c2)ccc1O: 0.95 µM
COc1cc(/C=C/C(=O)c2cc(Cl)ccc2Cl)ccc1O: > 5 µM

Please fill in: solubility kinetic at 24 h, 5 µM reported for "COc1cc(-c2cc(-c3ccc(Cl)cc3)nc(C)n2)ccc1O" = > 5 µM

The measured solubility kinetic at 24 h, 5 µM associated with "COc1cc(/C=C/C(=O)c2ccccc2Cl)ccc1O" reads > 5 µM

// field: solubility kinetic at 24 h, 5 µM; key: "O=C(/C=C/c1ccc2c(c1)OCCO2)c1ccc(Cl)cc1" ; value = > 5 µM

The value of solubility kinetic at 24 h, 5 µM measured for the molecule "COc1cc(/C=C/C(=O)c2cccc(Cl)c2Cl)ccc1O" turned out to be > 5 µM

Looking up "O=C(/C=C/c1ccc(O)c(C(=O)O)c1)c1ccc(Cl)cc1" , I see its solubility kinetic at 24 h, 5 µM listed as > 5 µM

Kindly note the recorded solubility kinetic at 24 h, 5 µM for COc1cc(C2CC(c3ccc(Cl)cc3)=NN2)ccc1O (stereo not drawn) , which is > 5 µM

For "COc1cc(-c2cc(-c3ccc(Cl)cc3)ncn2)ccc1O" the molecule record lists solubility kinetic at 24 h, 5 µM as 4.29 µM

Entry "COc1cc(/C=C(\C)C(=O)c2ccc(Cl)cc2)ccc1O" — recorded solubility kinetic at 24 h, 5 µM = > 5 µM

Recorded result, "Cl.NCCOc1cc(/C=C/C(=O)c2ccc(Cl)cc2)ccc1O" , solubility kinetic at 24 h, 5 µM: > 5 µM

"COc1cc(-c2cc(-c3ccc(Cl)cc3)nc(N)n2)ccc1O" yielded solubility kinetic at 24 h, 5 µM of > 5 µM
